Hi there, I'd appreciate the recorded kd ratio pH 7.4/6.0 for every entry that follows.
subject_of_test: T1, human FcRn/b2M (human, UniProt P61769 21-119, biotinylated)
T1 construct: bought recombinant biotinylated protein (ACRO FCM-H82W4 or Immunitrack ITF01); also called hFcRn; hFcRn/hb2M
assay_comment: SPR off-rate; pH 7.4 vs pH 6.0;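 further: surface plasmon resonance with diluted periplasmic extracts flowed over ligand surfaces, 120 s association and 600–3600 s dissociation at 25 °C, running buffer containing 150 mM NaCl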

Form field kd ratio pH 7.4/6.0, entry T0263018B11 S56Q (VHH, name in Kabat numbering, FLAG3-His6 tagged) VHH: EVQLVESGGGVVQPGGSLRLSCAASGFTFSSYAMYWVRQAPGKGLEWVSAISSGGGQTDYADSVKGRFTISRDNSKNTLYLQMNSLRPEDTALYYCAADTLYTSLTWYSYWGQGTLVTVSS : 30

Form field kd ratio pH 7.4/6.0, entry T0263018B11 T57S (VHH, name in Kabat numbering, FLAG3-His6 tagged) VHH: EVQLVESGGGVVQPGGSLRLSCAASGFTFSSYAMYWVRQAPGKGLEWVSAISSGGGSSDYADSVKGRFTISRDNSKNTLYLQMNSLRPEDTALYYCAADTLYTSLTWYSYWGQGTLVTVSS : 39

Form field kd ratio pH 7.4/6.0, entry T0263018B11 S31P (VHH, name in Kabat numbering, FLAG3-His6 tagged) VHH: EVQLVESGGGVVQPGGSLRLSCAASGFTFSPYAMYWVRQAPGKGLEWVSAISSGGGSTDYADSVKGRFTISRDNSKNTLYLQMNSLRPEDTALYYCAADTLYTSLTWYSYWGQGTLVTVSS : 49

Form field kd ratio pH 7.4/6.0, entry T0263018B11 W100cD (VHH, name in Kabat numbering, FLAG3-His6 tagged) VHH: EVQLVESGGGVVQPGGSLRLSCAASGFTFSSYAMYWVRQAPGKGLEWVSAISSGGGSTDYADSVKGRFTISRDNSKNTLYLQMNSLRPEDTALYYCAADTLYTSLTDYSYWGQGTLVTVSS : 19

Form field kd ratio pH 7.4/6.0, entry T0263018B11 Y35F (VHH, name in Kabat numbering, FLAG3-His6 tagged) VHH: EVQLVESGGGVVQPGGSLRLSCAASGFTFSSYAMFWVRQAPGKGLEWVSAISSGGGSTDYADSVKGRFTISRDNSKNTLYLQMNSLRPEDTALYYCAADTLYTSLTWYSYWGQGTLVTVSS : 33

Form field kd ratio pH 7.4/6.0, entry T0263018B11 T96S (VHH, name in Kabat numbering, FLAG3-His6 tagged) VHH: EVQLVESGGGVVQPGGSLRLSCAASGFTFSSYAMYWVRQAPGKGLEWVSAISSGGGSTDYADSVKGRFTISRDNSKNTLYLQMNSLRPEDTALYYCAADSLYTSLTWYSYWGQGTLVTVSS : 33

Form field kd ratio pH 7.4/6.0, entry T0263018B11 S100Q (VHH, name in Kabat numbering, FLAG3-His6 tagged) VHH: EVQLVESGGGVVQPGGSLRLSCAASGFTFSSYAMYWVRQAPGKGLEWVSAISSGGGSTDYADSVKGRFTISRDNSKNTLYLQMNSLRPEDTALYYCAADTLYTQLTWYSYWGQGTLVTVSS : 68

Form field kd ratio pH 7.4/6.0, entry T0263018B11 T100bL (VHH, name in Kabat numbering, FLAG3-His6 tagged) VHH: EVQLVESGGGVVQPGGSLRLSCAASGFTFSSYAMYWVRQAPGKGLEWVSAISSGGGSTDYADSVKGRFTISRDNSKNTLYLQMNSLRPEDTALYYCAADTLYTSLLWYSYWGQGTLVTVSS : 38

Provenance of the data: patent US20240132624A1
